runDescription: soluble on expression in E. coli; label from the status in PepcDB or PDB records
experimentalReadout: soluble on expression in E. coli

// worked examples, soluble on expression in E. coli included
seqtext=MSLNRPAPVEISYENMRFLITHNPTNATLNKFTEELKKYGVTTLVRVCDATYDKAPVEKEGIHVLDWPFDDGAPPPNQIVDDWLNLLKTKFREEPGCCVAVHCVAGLGRAPVLVALALIECGMKYEDAVQFIRQKRRGAFNSKQLLYLEKYRPKMRLRFRDTNGEGHHHHHH observedresult=soluble
seqtext=SAEKLFTPLKVGAVTAPNRVFMAPLTRLRSIEPGDIPTPLMGEYYRQRASAGLIISEATQISAQAKGYAGAPGLHSPEQIAAWKKITAGVHAEDGRIAVQLWHTGRISHSSIQPGGQAPVSASALNANTRTSLRDENGNAIRVDTTTPRALELDEIPGIVNDFRQAVANAREAGFDLVELHSAHGYLLHQFLSPSSNQRTDQYGGSVENRARLVLEVVDAVCNEWSADRIGIRVSPIGTFQNVDNGPNEEADALYLIEELAKRGIAYLHMSETDLAGGKPYSEAFRQKVRERFHGVIIGAGAYTAEKAEDLIGKGLIDAVAFGRDYIANPDLVARLQKKAELNPQRPESFYGGGAEGYTDYPSL observedresult=soluble
seqtext=MSLKIILPVKPISQLFPIPFVMGCEGVSAAMLLQFNNYDIKATQIMSHWPKHPTNPYKGYVGHPLLVKFGHHQTIFPDAFAPFLKQYDSRIVDGTGTSLNQLEKFIDKGQPVIIYHTSLGSKPLRRVFHFDNQPTKLVSNIHVTLLIGYDDDYYYYIDPLWSRLSKFVIFPSIIPNSKQIIKIKKHTLENSYNAPGKKCIYIDNEGHHHHHH observedresult="not soluble"
seqtext=GPGSMYTHTRMHTTSASATLLSLPLCVRASPTNTPAAQLSALSDHLGLRVIKTNNLHTSSRSNMPAKAAAKPVKPAAKAAPKPANKAPAPKAAAAKPVAKAAPKAAAPAARPASGSSNGVYVKNWGTGSVADAANVFSAAGKVVKVQLRRQRYAIVFFENSAAVKKAIDLFNEKEVLGKTVLVVPAKTSPKPDAHENSSCVFVSPIFRPSTTKAQVMELFAGVKVQRLRMYRQNFAYAYLDSPAAAKKFVEEKNGTEFRGHTLRVALSARSLEKLRARQEAANVVIAAHRHYKTHERQ observedresult="not soluble"
seqtext=AIAQSRKQLPITNAVIHPVVLLGIVDHYNRACKNTRKRAVGILLGTIDRRGHAEVLNSFAVPFEEDERNPTVFFFDHDYVENMAAMFRKVTARERIIGWYSTGPQIRPADMGVHEIVQGFCSSGHALYVICQVDPKETGLPTEAYVSLEEDSVALEGSAPGQPRRIFEHVPNSIGALEAEEVGTEHLLRDVRNWSVSTLTGEVRAKLDALQSLRARLENIRRYLEEVASGNLPLHQEILHALQLVLKGLPRNAASSELTQAFAVCSNEQTLLIYVATLLRSVLVLHDLVNNKTELLETERKMEVAFSNATTAMDAPGSPTVADSL observedresult=soluble

Prompt: What value of soluble on expression in E. coli has been recorded for this entry: MNLQHHFLIAMPALQDPIFRRSVVYICEHNQNGAMGIIVNKPLENLQIEGILEKLKITPESRDSAIRLDKAVMLGGPLAEDRGFILHTPPSRFASSIRISDNTVITTSRDVLETLGTQQQPSDVLVALGYASWDKGQLEQELLDNAWLTAPADLNILFKTPIAERWREAAKLIGIDILTMPGVAGHALEHHHHHH
Completion: soluble
